Hey, just so you know, these numbers are from PubChem BioAssay (EPA / NIEHS).

Read-out: E-selectin (Homo sapiens) (UniProt P16581)
Sequence (P16581 whole entry, looked up): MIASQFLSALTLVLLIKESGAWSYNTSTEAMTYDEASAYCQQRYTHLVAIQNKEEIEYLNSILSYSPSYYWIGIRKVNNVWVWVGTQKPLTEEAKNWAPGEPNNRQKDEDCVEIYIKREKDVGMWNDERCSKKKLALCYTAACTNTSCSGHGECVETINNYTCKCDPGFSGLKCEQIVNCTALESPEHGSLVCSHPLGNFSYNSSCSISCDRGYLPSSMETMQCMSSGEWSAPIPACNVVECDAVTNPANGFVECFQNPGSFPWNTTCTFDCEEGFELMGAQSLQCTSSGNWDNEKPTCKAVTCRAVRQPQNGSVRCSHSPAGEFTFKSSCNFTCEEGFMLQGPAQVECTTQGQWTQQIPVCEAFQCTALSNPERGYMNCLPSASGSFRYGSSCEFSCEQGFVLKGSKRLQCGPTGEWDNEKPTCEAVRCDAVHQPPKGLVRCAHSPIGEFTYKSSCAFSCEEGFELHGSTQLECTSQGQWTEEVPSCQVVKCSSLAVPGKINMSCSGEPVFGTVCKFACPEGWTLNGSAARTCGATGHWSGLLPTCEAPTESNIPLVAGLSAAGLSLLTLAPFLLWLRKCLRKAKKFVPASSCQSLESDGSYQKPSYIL
Assay: BSK_3C_Eselectin: BioMAP Diversity Plus: 3C Assay for Eselectin Biomarker Activity (AID 2283015);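 for outcome: cell surface E-selectin protein quantified by ELISA 24 h after dosing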
Conditions: primary human endothelial cells (HUVEC); actives raise or lower the signal
The source made the active and inactive calls. Rule for the calls: active = hit-call score of the fitted dose curve at least 0.9, where 1 is the maximum; inactive = score below 0.9.
// allowed return values: Y = active, N = inactive

Short answer needed: outcome of this test for CC/C(=C\C(=N/O)C(N)=O)C(C)[N+](=O)[O-] (centres undefined) ? N

Name the outcome recorded for O=C(O)CCN(C1(C(=O)NO)CCCC1)S(=O)(=O)c1ccc(Oc2ccc(F)cc2)cc1 in the assay. N

Could you check what this test reported for CN(C)c1ccc(N=NS(=O)(=O)O)cc1 ? N

Lab log entry: Nc1cccc(N)c1 — outcome as called in the assay? N

What outcome does the record of this test show for O=C(O)c1cccc(N(Cc2cccnc2)c2ccc(OC(F)F)c(OC(F)F)c2)c1 ? N

Tell me the recorded outcome of this test for On1ccccc1=S . Y

For CC(=O)OCCC(C)C , which call appears in the assay record? N

Assay outcome for C1=CCCC=CCCC=CCC1 : what was it? N

Any idea what this test logged for O=C(OC[C@H]1O[C@@H](OC(=O)c2cc(O)c(O)c(OC(=O)c3cc(O)c(O)c(O)c3)c2)[C@H](OC(=O)c2cc(O)c(O)c(OC(=O)c3cc(O)c(O)c(O)c3)c2)[C@@H](OC(=O)c2cc(O)c(O)c(OC(=O)c3cc(O)c(O)c(O)c3)c2)[C@@H]1OC(=O)c1cc(O)c(O)c(OC(=O)c2cc(O)c(O)c(O)c2)c1)c1cc(O)c(O)c(OC(=O)c2cc(O)c(O)c(O)c2)c1 ? N

* * *

Target: Estrogen-related receptor gamma (Homo sapiens) (UniProt P62508)
Sequence (P62508 whole entry, looked up): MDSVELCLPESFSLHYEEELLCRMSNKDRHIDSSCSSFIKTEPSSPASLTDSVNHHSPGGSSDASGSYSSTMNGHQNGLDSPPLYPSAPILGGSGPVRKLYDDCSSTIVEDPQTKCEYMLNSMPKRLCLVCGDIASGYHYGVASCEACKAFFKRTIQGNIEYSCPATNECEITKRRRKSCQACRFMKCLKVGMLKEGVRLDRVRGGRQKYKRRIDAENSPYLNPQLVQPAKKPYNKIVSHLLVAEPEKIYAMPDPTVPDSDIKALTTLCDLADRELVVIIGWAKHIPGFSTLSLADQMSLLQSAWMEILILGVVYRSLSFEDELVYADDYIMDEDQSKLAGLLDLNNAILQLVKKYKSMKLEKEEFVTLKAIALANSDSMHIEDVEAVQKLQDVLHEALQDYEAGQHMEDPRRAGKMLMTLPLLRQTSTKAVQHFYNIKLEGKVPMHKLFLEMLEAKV
Assay: ATG_ERRg_TRANS: Attagene TRANS-FACTORIAL HepG2 Assay for human Estrogen-Related Receptor gamma (ERRg) (AID 2282977);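 note: hits increase reporter signal over DMSO so potencies reflect activators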
Conditions: HepG2 Attagene TRANS reporter, ERRg transactivation
Results filed as inconclusive are left out. The source made the active and inactive calls. Rule for the calls: active = hit-call score of the fitted dose curve at least 0.9, where 1 is the maximum; inconclusive = response in the unintended direction; inactive = score below 0.9.
attribute.measured: outcome

> print(dat)
                                smiles.text                             tested.system  attribute.measured  observed
1  CCc1cc(SCc2sc(-c3ccc(C(F)(F)F)cc3)nc2CN2CCN(c3ccc(OC)cc3)CC2)ccc1OCC(=O)O  Estrogen-related receptor gamma (Homo sapiens) (UniProt P62508)             outcome  inactive
2                               O=C1CCCCCN1  Estrogen-related receptor gamma (Homo sapiens) (UniProt P62508)             outcome  inactive
3  CC[C@H]1CC[C@H](NCc2cc3c(cc2OC)[C@H]2C[C@H]2C(=O)N3C)[C@H](c2ccccc2)N1  Estrogen-related receptor gamma (Homo sapiens) (UniProt P62508)             outcome  inactive

* * *

Target: Retinoic acid receptor RXR-alpha (Homo sapiens) (UniProt P19793)
Sequence (P19793 whole entry, looked up): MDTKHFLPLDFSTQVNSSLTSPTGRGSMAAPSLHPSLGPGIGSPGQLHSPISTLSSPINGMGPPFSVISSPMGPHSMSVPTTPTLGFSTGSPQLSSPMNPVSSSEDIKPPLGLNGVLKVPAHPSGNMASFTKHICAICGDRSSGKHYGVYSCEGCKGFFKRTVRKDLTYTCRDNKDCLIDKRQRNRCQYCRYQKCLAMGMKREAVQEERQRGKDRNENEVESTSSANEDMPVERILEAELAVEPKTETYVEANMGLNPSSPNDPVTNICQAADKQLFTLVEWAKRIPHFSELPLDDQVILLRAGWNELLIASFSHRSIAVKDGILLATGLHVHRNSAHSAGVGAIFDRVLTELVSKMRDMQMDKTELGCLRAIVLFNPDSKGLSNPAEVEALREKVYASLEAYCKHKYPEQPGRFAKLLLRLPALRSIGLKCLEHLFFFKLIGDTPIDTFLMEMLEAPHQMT
Test: ATG_RXRa_TRANS: Attagene TRANS-FACTORIAL HepG2 Assay for human Retinoid X Receptor alpha (RXRa) (AID 2283012)
Results filed as inconclusive are left out. Active and inactive are the calls of the source. Rule for the calls: active = hit-call score of the fitted dose curve at least 0.9, where 1 is the maximum; inconclusive = response in the unintended direction; inactive = score below 0.9.
attribute.measured: outcome

> print(dat)
                                   compound                             tested.system  observed
1                        C1N2CN3CN1CN(C2)C3  Retinoic acid receptor RXR-alpha (Homo sapiens) (UniProt P19793)  inactive
2  CCOc1cccc(-n2cc(C(=O)N3CCN(c4cc(C(=O)O)c5ccccc5c4)CC3)nc2-c2ccc(C)cc2)c1  Retinoic acid receptor RXR-alpha (Homo sapiens) (UniProt P19793)  inactive
3  CCc1cc(SCc2sc(-c3ccc(C(F)(F)F)cc3)nc2CN2CCN(c3ccc(OC)cc3)CC2)ccc1OCC(=O)O  Retinoic acid receptor RXR-alpha (Homo sapiens) (UniProt P19793)  inactive
4    O=C(O)CC(O)C(=O)O (stereo unspecified)  Retinoic acid receptor RXR-alpha (Homo sapiens) (UniProt P19793)  inactive
5                              CCOCCOCCOCCO  Retinoic acid receptor RXR-alpha (Homo sapiens) (UniProt P19793)  inactive

Next up:
Read the entry CC/C(=C\C(=N/O)C(N)=O)C(C)[N+](=O)[O-] (stereo unspecified) and write its reported outcome. inactive

* * *

Experiment: BSK_3C_VCAM1: BioMAP Diversity Plus: 3C Assay for Vascular cell adhesion molecule 1 (VCAM1) Biomarker Activity (AID 2282999)
Details: BioMAP 3C HUVEC, VCAM1 ELISA, cytokine-stimulated; actives raise or lower the signal
Active and inactive are the calls of the source. Rule for the calls: active = hit-call score of the fitted dose curve at least 0.9, where 1 is the maximum; inactive = score below 0.9.
Log the outcome using a class from active, inactive

Lab log entry: CCN(C(=O)c1cc(C)cc(OC[C@H](C)Nc2ccncc2)c1)C(C)C — outcome as called in the assay? inactive

Dear all, I need the recorded test outcome for CCCC(=O)OCC , thank you. inactive

Hi team, can someone confirm the assay call for COc1cccc(-c2ccc(/C=C\CN3CCCCCC3)cc2Cl)c1 ? active

Each molecule tested received a call. Report the one for On1ccccc1=S . active

Recorded call for Cc1[nH]cnc1C[C@H]1CCc2c(C)c3ccccc3n2C1=O ? inactive

Which outcome was assigned to CCCCC(CC)COC(=O)c1ccc(C(=O)OCC(CC)CCCC)cc1 (configuration not stated) in this test? inactive

What call does the record list for COC(=O)CC(=O)OC ? inactive

* * *

Read-out: Forkhead box O3 (FOXO3), FOXO3 (gene 2309)
Test: LTEA_HepaRG_FOXO3: Life Technologies and Expression Analysis (LTEA) Assay for Forkhead box O3 (FOXO3) using HepaRG (AID 2283459)
Conditions: mRNA level, 48 h; actives raise or lower the signal
Active and inactive are the calls of the source. How the source made its calls: active means hit-call score of the fitted dose curve at least 0.9, where 1 is the maximum; inactive means score below 0.9.
Answer with one of the outcomes given here: active, inactive

Look up the recorded call for Fc1ccccc1[C@@H](F)COC1CCC(Nc2ncnc3[nH]ncc23)CC1 (some centres not stated) in this test. inactive

Hi team, can someone confirm the assay call for CC(C)=CCCC(C)=CC=O ? inactive

Status in this test for CCCCC(CC)COC(=O)CCCCCCCCC(=O)OCC(CC)CCCC (configuration not stated) ? inactive

Which outcome was assigned to O=C1OC(=O)C2C3C=CC(C3)C12 (configuration not stated) in this test? inactive

For this compound, state the assay outcome: Cc1ccc(S(=O)(=O)O)cc1C inactive

Entry Cn1c(=O)cc(Oc2ccc(F)cc2F)c2cnc(NCC(C)(C)O)nc21 : call = ? inactive

Tell me the recorded outcome of this test for Oc1ccc2c(c1)-c1ccccc1C2 . inactive

In this assay, the call recorded for COc1cccc(-c2ccc(/C=C\CN3CCCCCC3)cc2Cl)c1 was what? inactive

# outcome recorded in this test, key = CCOC(=O)COc1ccc2c(c1)CC(NCC(O)c1cccc(Cl)c1)CC2 (configuration not stated) inactive

So what was the verdict on COC(=O)c1c(Cl)c(Cl)c(C(=O)OC)c(Cl)c1Cl in this test? inactive

Which result was noted for this compound in the test: CC(C)c1cccc(C(C)C)c1N1C(=O)c2ccc(O)cc2C1=O active

Hi, sorry to bother you, what did the test record for CN(C)c1ccc(N=NS(=O)(=O)O)cc1 ? active

* * *

Biological target: Transcriptional activator Myb (Homo sapiens) (UniProt P10242)
Sequence (P10242 whole entry, looked up): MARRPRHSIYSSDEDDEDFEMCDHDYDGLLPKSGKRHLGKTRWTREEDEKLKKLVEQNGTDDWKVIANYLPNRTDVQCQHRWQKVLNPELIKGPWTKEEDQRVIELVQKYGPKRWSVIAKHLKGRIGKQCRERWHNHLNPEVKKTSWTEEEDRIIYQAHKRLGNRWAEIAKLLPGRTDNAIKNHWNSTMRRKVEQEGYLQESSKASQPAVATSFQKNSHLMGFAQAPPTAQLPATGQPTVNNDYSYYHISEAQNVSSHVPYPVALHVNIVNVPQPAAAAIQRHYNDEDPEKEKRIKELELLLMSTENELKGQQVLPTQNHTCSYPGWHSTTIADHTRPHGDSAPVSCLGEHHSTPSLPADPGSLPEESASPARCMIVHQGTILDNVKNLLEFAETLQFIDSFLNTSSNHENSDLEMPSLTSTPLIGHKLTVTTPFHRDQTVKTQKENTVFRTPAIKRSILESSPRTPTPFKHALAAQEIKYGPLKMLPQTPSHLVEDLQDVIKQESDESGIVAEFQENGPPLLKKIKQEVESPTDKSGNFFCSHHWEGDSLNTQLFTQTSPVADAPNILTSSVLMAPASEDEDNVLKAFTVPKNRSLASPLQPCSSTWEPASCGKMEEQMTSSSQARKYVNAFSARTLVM
Test: ATG_Myb_CIS: Attagene CIS-FACTORIAL HepG2 Assay for human Myeloblastosis (Myb) Proto-Oncogene Transcription Factor (AID 2282986)
Details: HepG2 Attagene CIS-FACTORIAL Myb reporter transcription; actives raise or lower the signal
Activity calls are given as the source filed them. How the source made its calls: active means hit-call score of the fitted dose curve at least 0.9, where 1 is the maximum; inactive means score below 0.9.

compound	outcome
O=C(OC[C@H]1O[C@@H](OC(=O)c2cc(O)c(O)c(OC(=O)c3cc(O)c(O)c(O)c3)c2)[C@H](OC(=O)c2cc(O)c(O)c(OC(=O)c3cc(O)c(O)c(O)c3)c2)[C@@H](OC(=O)c2cc(O)c(O)c(OC(=O)c3cc(O)c(O)c(O)c3)c2)[C@@H]1OC(=O)c1cc(O)c(O)c(OC(=O)c2cc(O)c(O)c(O)c2)c1)c1cc(O)c(O)c(OC(=O)c2cc(O)c(O)c(O)c2)c1	inactive
CCCCCCCCCCCCc1ccccc1	inactive
CC(O)CN(CCN(CC(C)O)CC(C)O)CC(C)O (stereo not drawn)	inactive

* * *

Assay: CCTE_Deisenroth_5AR_NBTE_donor: CCTE's 5alpha-reductase NanoBRET Target Engagement Assay […], Deisenroth Lab (AID 2284319)
Conditions: actives raise or lower the signal
Active and inactive are the calls of the source. How the source made its calls: active means hit-call score of the fitted dose curve at least 0.9, where 1 is the maximum; inactive means score below 0.9.
Answer with one of the outcomes active, inactive

Record request — test call for O=C(OC[C@H]1O[C@@H](OC(=O)c2cc(O)c(O)c(OC(=O)c3cc(O)c(O)c(O)c3)c2)[C@H](OC(=O)c2cc(O)c(O)c(OC(=O)c3cc(O)c(O)c(O)c3)c2)[C@@H](OC(=O)c2cc(O)c(O)c(OC(=O)c3cc(O)c(O)c(O)c3)c2)[C@@H]1OC(=O)c1cc(O)c(O)c(OC(=O)c2cc(O)c(O)c(O)c2)c1)c1cc(O)c(O)c(OC(=O)c2cc(O)c(O)c(O)c2)c1 inactive

State the result this test recorded for Nc1ccc(Nc2ccccc2)cc1 . active

Hello, I am checking results. What call was entered for CCC(C)(C)C(=O)O[C@H]1C[C@@H](C)C=C2C=C[C@H](C)[C@H](CC[C@@H]3C[C@@H](O)CC(=O)O3)[C@H]21 ? inactive

Assay result, entry CN(C)c1ccc(N=NS(=O)(=O)O)cc1 — outcome? inactive
